Readings of remaining at 24 h, 5 umol for the listed compounds
- Procedure Summary: Hydrolytic stability of the compound assessed as remaining compound level at 5 umol at pH 4.8 at 25 degC after 24 hrs by UV analysis in presence of wheat germ acid phosphatase
- Assay type: physicochemical
- Test Conditions: read-out: Stability
Form entry: value (%) — number only.

Compound	remaining at 24 h, 5 umol / %
C[C@]12C=CC(=O)C=C1CC[C@@H]1[C@@H]2[C@@H](O)C[C@@]2(C)[C@H]1CC[C@]2(O)C(=O)CO[P+]([O-])(O)OC[C@H]1O[C@@H](n2ccc(N)nc2=O)[C@@H](O)[C@@H]1O (some centres not stated)	8

Field: next compound
Task item: Any idea what remaining at 24 h, 5 umol was measured for C[C@]12C=CC(=O)C=C1CC[C@@H]1[C@@H]2C(=O)C[C@@]2(C)[C@H]1CC[C@]2(O)C(=O)CO[P+]([O-])(O)OC[C@H]1O[C@@H](n2ccc(N)nc2=O)[C@@H](O)[C@@H]1O (some centres not stated) ?
Reply: 7
